Test: NCI Yeast Anticancer Drug Screen. Data for the mec2-1 strain (AID 157)
Settings: S. cerevisiae mec2-1 strain, at 50.0 µM (retest, dose inferred, filed as 5.0), hits give high values
About 79,000 compounds went through this panel and 15% of them were active in at least one assay; those are over-represented in the sample as a whole.
Recorded endpoint: growth inhibition (%)
Respond with the bare value in %.

Request: Name the recorded growth inhibition for N#CCCN(CCC#N)Cc1cc(-c2ccccc2)ccc1O .
Response: 19

Request: Name the recorded growth inhibition for Cc1c(C)c(O)c2c(c1O)C(=O)C=C(Cl)C2=O .
Response: 96

Request: Name the recorded growth inhibition for CCOC(=O)N1CCN(C=S)CC1 .
Response: -7

Request: Name the recorded growth inhibition for COc1cc2c(cc1O)-c1c(cnn1-c1ccc([N+](=O)[O-])cc1)CCC2 .
Response: 27

Request: Name the recorded growth inhibition for CC(C)(C)[Si](C)(C)OCC1OC(n2cnc3c(NC(=O)c4ccccc4)ncnc32)CC1O (stereo not drawn) .
Response: 4

Request: Name the recorded growth inhibition for N#CC(C#N)=C(C1CC1)C1CC1 .
Response: 94

Request: Name the recorded growth inhibition for COc1ccc(C2=Nc3cc(C)c(C)cc3NC(c3ccccc3)C2)cc1 (stereo not drawn) .
Response: 7

Request: Name the recorded growth inhibition for COC(=O)C1(C)CC2C(C)(CCC3(C)C4=CC=C5C(=CC(=O)C(O)=C5C)C4(C)CCC23C)CC1O (stereo not drawn) .
Response: 98
